- condition-set: i.p.; minimal lethal dose
Min Lethality by entry:

Some solved entries appear below for comparison.
1. CCC[C@@H]1CC(C)(C)C[C@](C)(N)C1 (relative stereo) | > 30 mg/kg
2. CCC1(C)CC(C)(C)CC(C)(N)C1 (stereo not drawn) | > 50 mg/kg

Q: Recorded Min Lethality for CCC1(CC)CC(C)(C)CC(C)(N)C1 (stereo not drawn) , please?
Result: > 30 mg/kg

Q: What about CC1(C)CC(C)(C)CC(C)(N2CCCC2)C1.Cl ?
Result: > 50 mg/kg

Q: What about C[C@H]1CCC[C@@](C)(N)C1 (relative stereo) ?
Result: > 30 mg/kg

Q: What about C[C@]12N[C@H](Cc3ccccc31)c1ccccc12 [MK-801, reference compound] ?
Result: > 108 mg/kg

Q: What about CC1(C)CC(C)(C)CC(C)(N)C1 ?
Result: 108 mg/kg
